Assay: Pharmacokinetics (plasma AUC) in mice
Format: in vivo
Conditions: mouse, 5 mg/kg iv
Measurement type: AUC(0-inf) (ng·h/mL)

- COc1cc(-c2ncn(/C=C\C(=O)OC(C)C)n2)cc(C(F)(F)F)c1 [Compound X-1, reference compound]: 209

---

Quick list: AUC(0-inf) per entry.
Test: Pharmacokinetics (plasma AUC) in mice
Format: in vivo
Conditions: mouse, 10 mg/kg po
Measurement type: AUC(0-inf) (ng·h/mL)

* O=C(/C=C\n1cnc(-c2cc(C(F)(F)F)cc(C(F)(F)F)c2)n1)NNC(=S)NC1CC1 | 20900
* Cc1[nH]ncc1C(=O)NNC(=O)/C=C\n1cnc(-c2cc(C(F)(F)F)cc(C(F)(F)F)c2)n1 | 15200
* O=C(/C=C\n1cnc(-c2cc(C(F)(F)F)cc(C(F)(F)F)c2)n1)NNC(=O)Cc1cnccn1 | 8340
* CC1COCC(C)N1CC(=O)NNC(=O)/C=C\n1cnc(-c2cc(C(F)(F)F)cc(C(F)(F)F)c2)n1 (centres unmarked) | 1100
* O=C(/C=C\n1cnc(-c2cc(C(F)(F)F)cc(C(F)(F)F)c2)n1)NNC(=O)CN1CCOCC1 | 28900
* O=C(/C=C\n1cnc(-c2cc(C(F)(F)F)cc(C(F)(F)F)c2)n1)N1CC(F)(F)C1 [Compound X-3, reference compound] | 12300
* O=C(/C=C\n1cnc(-c2cc(C(F)(F)F)cc(C(F)(F)F)c2)n1)NNC(=O)c1cnccn1 | 9150
* CC(C)(C)C(=O)NNC(=O)/C=C\n1cnc(-c2cc(C(F)(F)F)cc(C(F)(F)F)c2)n1 | 33100
* CC1(C)COCCN1CC(=O)NNC(=O)/C=C\n1cnc(-c2cc(C(F)(F)F)cc(C(F)(F)F)c2)n1 | 588
* O=C(/C=C\n1cnc(-c2cc(C(F)(F)F)cc(C(F)(F)F)c2)n1)NNC(=O)C(=O)N1CCOCC1 | 19600
* O=C(/C=C\n1cnc(-c2cc(C(F)(F)F)cc(C(F)(F)F)c2)n1)NNC(=O)CN1CCOCC1=O | 1420
